# targetEntity: human melanocortin-3 (MC-3) receptor (human, UniProt P41968)
# assay: displacement of 125I-AGRP, membranes of HEK 293 cells with hMC3 (value column 4)
pIC50: −log10 of the molar value. Bridge positions count the residues as written; N and C are the ends. Square brackets hold non-standard residues; d marks the D form. Ends that are not written are not given here. Abu = CC[C@H](N)C(=O)O
recordedEndpoint: pIC50

Lookup result for [Abu][Abu]DPCAS[Abu]QCRFFRSACS[Abu]RVLSLNC (disulfide (positions not given here); also: oxidised to disulfides, pairs not given here) [peptide of SEQ ID NO:17] ; measured pIC50: < 6.00

Lookup result for HESCLGQQVP[Abu][Abu]DP[Abu]ATCYCRFFNAFCY[Abu]RKL (disulfide (positions not given here)) [peptide of SEQ ID NO:3] ; measured pIC50: < 6.00

Lookup result for HESCLGQQVPC[Abu]DP[Abu]ATCYCRFFNAFCYCRKL (disulfide (positions not given here)) [peptide of SEQ ID NO:2] ; measured pIC50: 6.07

Lookup result for CRFFGSAC (disulfide 1-8 (inferred)) [peptide of SEQ ID NO:7] ; measured pIC50: < 6.00
